# target-under-test: human Src enzyme (Homo sapiens, UniProt P12931)
# Construct: purchased Carna Biosciences, Inc. 08-173
# Sequence (P12931 whole entry): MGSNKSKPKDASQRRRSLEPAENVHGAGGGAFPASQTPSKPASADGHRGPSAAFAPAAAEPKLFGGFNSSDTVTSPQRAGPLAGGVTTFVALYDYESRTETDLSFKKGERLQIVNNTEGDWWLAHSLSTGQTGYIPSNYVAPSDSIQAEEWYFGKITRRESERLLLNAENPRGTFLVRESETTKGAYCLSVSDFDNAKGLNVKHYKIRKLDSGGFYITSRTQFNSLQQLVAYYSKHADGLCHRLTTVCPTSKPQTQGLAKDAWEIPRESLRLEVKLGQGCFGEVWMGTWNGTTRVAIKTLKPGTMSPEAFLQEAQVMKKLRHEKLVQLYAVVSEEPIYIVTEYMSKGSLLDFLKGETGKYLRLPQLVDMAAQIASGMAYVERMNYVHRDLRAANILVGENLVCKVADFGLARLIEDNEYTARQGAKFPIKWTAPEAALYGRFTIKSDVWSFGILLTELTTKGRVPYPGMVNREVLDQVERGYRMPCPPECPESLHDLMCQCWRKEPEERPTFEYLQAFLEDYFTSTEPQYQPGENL
# protocol-summary: Src enzyme inhibitory activity (time-resolved fluorometry, biotinylated peptide phosphorylation)
# Assay type: biochemical
# protocol-conditions: read-out: SRC_IC50
We begin with a simple list: items and their reported IC50.
Reply numerically in µM, unit not repeated.

Study these solved cases before continuing.
# molecule, observed-result
measured = [
    ("Cc1cc2cc(C(=O)c3cnn(-c4cnc(Oc5ccccc5F)cc4C)c3N)[nH]c2cc1C1CCN(S(=O)(=O)C2CC2)CC1", 0.091),
    ("Cc1cc2cc(C(=O)c3cnn(-c4c(C)cc(Oc5ccccc5F)cc4F)c3N)[nH]c2cc1C1CCN(S(C)(=O)=O)CC1", 0.046),
]

# next compound below
Record summary for Cc1cc(-n2ncc(C(=O)c3cc4cc(OC5CCN(C(C)C)CC5)c(N5CCC(N6CCOCC6)CC5)cc4[nH]3)c2N)c(F)cc1Oc1ccccc1F : reported IC50 = 0.082
